testedTarget: aldose reductase (Homo sapiens)
Construct: partially purified aldose reductase enzyme obtained from human placenta; from tissue; host or cells: human placenta
protocolNotes: inhibition of aldose reductase enzyme activity (procedure of S. Hayman et al. as modified by K. Sestanj et al.)
Format: biochemical
measurementSetup: 10^-5 M; partially purified aldose reductase from human placenta
We begin with a simple list: items and their reported inhibition at 10 µM.
reportedMetric: inhibition at 10 µM

{"compound": "O=C(O)CN1C(=O)C(Cc2ccc(Cl)c(Cl)c2)c2ccc(O)cc21 (stereo not drawn)", "result": "79%"}
{"compound": "COc1ccc2c(c1)N(CC(=O)O)C(=O)C2Cc1ccc(Cl)c(Cl)c1 (stereo not drawn)", "result": "81%"}
{"compound": "O=C(O)CN1C(=O)C2(Cc3ccccc3C2)c2ccccc21", "result": "66%"}
{"compound": "CC(c1ccc(Cl)c(Cl)c1)C1(C)C(=O)N(CC(=O)O)c2ccccc21 (stereo not drawn)", "result": "72%"}
{"compound": "O=C(O)CN1C(=O)C2(Cc3ccc(Cl)cc3C2)c2ccccc21 (stereo not drawn)", "result": "71%"}
{"compound": "CC(C(=O)O)N1C(=O)C(Cc2ccc(Cl)c(Cl)c2)c2ccccc21 (stereo not drawn)", "result": "25%"}
{"compound": "O=C(O)CN1C(=O)C(Cc2ccc(Cl)c(Cl)c2)(Cc2ccc(Cl)c(Cl)c2)c2ccccc21", "result": "20%"}
{"compound": "O=C(O)CN1C(=O)C(Cc2ccc(Cl)c(Cl)c2)c2ccc(F)cc21 (stereo not drawn)", "result": "68%"}
{"compound": "COc1cc2c(cc1OC)N(CC(=O)O)C(=O)C2Cc1ccc(Cl)c(Cl)c1 (stereo not drawn)", "result": "55%"}

From: patent US5064852A
